system: Saccharomyces cerevisiae; experiment: protein stability index of tFT-peptide fusion (C-terminal peptide) (PSI (0-1 scale)); higher = more stable (slower turnover); settings: genetic background: wild type; temperature: 30 C;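 further: PSI is a weighted mean of sequencing reads over stability bins, variants kept only with over 10 reads, mCherry proximal and sfGFP distal, peptide attached via GGGS linker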
Criterion: protein stability index meeting or surpassing 0.2. Met: Condition met. Not met: Condition not met.

1) CFVQVGGLVKIS | Condition met
2) LSFLLLLGCFGS | Condition met
3) WVCCFVWGCLIR | Condition met
4) IFVFVSFPSCVL | Condition met
5) FVLWLIYVDLFF | Condition met
6) QPTPQSALAKHQ | Condition met
7) VAGGFWCWGMVG | Condition met
8) SLCELRCLLRVG | Condition met
9) CGFVCGLCLCRV | Condition met
10) DPTLLLYPLSPL | Condition met
11) QPTGYFKLIIIK | Condition met
12) FFASAAVHLVTC | Condition met
13) APTMAIIVVHVR | Condition met
14) LLFCFSVILFTC | Condition not met
15) KIILMCYTLITL | Condition met
16) PRIVLFLRLHSN | Condition not met
17) GVSLQLHVAVLI | Condition met
18) VVDIFLFFLFVC | Condition not met
19) ILFWSLLVSTIR | Condition not met
20) GGICVVAYWRLA | Condition not met
21) HWVRLSSLAFVS | Condition not met
22) SLCSSVQVWSVV | Condition met
23) CFCLFVFFISSC | Condition met
24) LSGVLFSLIRFY | Condition met
25) YTQKFTFYGLPA | Condition met

----------
Documented protein stability index across a set of sequences
tested on: Saccharomyces cerevisiae; experiment: protein stability index of tFT-peptide fusion (C-terminal peptide) (PSI (0-1 scale)); higher = more stable (slower turnover); conditions: genetic background: wild type; temperature: 30 C
MEASURED PARAMETER: protein stability index

1) IHPKREPRDNNI | 0.679
2) FTKAVQVFLASV | 0.635
3) PHPLPLPPPVAP | 0.711
4) VSGDLRRWRNSE | 0.673

----------
tested on: Saccharomyces cerevisiae; test: protein stability index of tFT-peptide fusion (C-terminal peptide) (PSI (0-1 scale)); higher = more stable (slower turnover); settings: genetic background: wild type; temperature: 37 C
Criterion: protein stability index meeting or surpassing 0.4. Met: Fulfilled. Not met: Not fulfilled.

1) GELPGELYKFWL | Fulfilled
2) PPTPYPRFIFSF | Fulfilled
3) FLGPMRVLVSSV | Fulfilled
4) QPTPQSALAKHQ | Fulfilled
5) SVLCLFSRLRSV | Not fulfilled
6) FFLLLVGFSVLG | Not fulfilled
7) HFASPPAPRSNL | Fulfilled
8) ESCIFLMWLTVL | Not fulfilled
9) CGFVCGLCLCRV | Fulfilled
10) KMKGLINKRKES | Not fulfilled
11) GVGHAWHYFCVC | Fulfilled
12) ALFISLAIWNWS | Not fulfilled
13) QPTGYFKLIIIK | Fulfilled
14) HLRWYITGIVWF | Fulfilled
15) RIIKIRAISINL | Fulfilled
16) KKNLTHSIRVQA | Fulfilled
17) PLLLFFFPRLLF | Fulfilled
18) GVLRMAPGRVMC | Not fulfilled
19) FSGRYFLLFRFL | Not fulfilled
20) TYSVIPSLALLP | Fulfilled
21) VSLHVFVFLLAS | Not fulfilled
22) FLLPWLRPVFFF | Not fulfilled
23) LLVRYRRALVLL | Not fulfilled
24) AFRFLAVCVGCG | Not fulfilled
25) LQLGFCFVAQFI | Fulfilled
26) GVVWPLGWVWVE | Fulfilled
27) WLCWVVWFPGLF | Not fulfilled
28) AFRSPLLMLLVL | Not fulfilled
29) SINKLLILIKSI | Not fulfilled
30) VFLFSLLIVFFP | Not fulfilled
31) LYRIETLFMRAQ | Not fulfilled
32) FSLLTWPFVFLV | Not fulfilled
33) LWAPFWVSRVTA | Fulfilled
34) FCIYLCLSTSIT | Not fulfilled
35) EVVFHVFLVGLV | Fulfilled
36) SVFSFCLCVGVV | Not fulfilled

----------
tested on: Saccharomyces cerevisiae; assay: protein stability index of tFT-peptide fusion (C-terminal peptide) (PSI (0-1 scale)); higher = more stable (slower turnover); conditions: genetic background: cdc34-1; temperature: 37 C
Criterion: protein stability index meeting or surpassing 0.4. Met: 1 (yes). Not met: 0 (no).

1. VVVFRWTCWLLV | 0 (no)
2. LCCTLFFCYSYH | 1 (yes)
3. IEVACLLTAFCD | 0 (no)
4. LMLISFLFLSLL | 1 (yes)
5. LSVRLYRTVFLV | 0 (no)
6. SPCLSWTLVLVL | 0 (no)
7. ACLLCVCVESRE | 1 (yes)
8. SFFCFFLSFFYL | 1 (yes)

----------
test system: Saccharomyces cerevisiae; assay: protein stability index of tFT-peptide fusion (C-terminal peptide) (PSI (0-1 scale)); higher = more stable (slower turnover); conditions: genetic background: wild type; temperature: 30 C
Criterion: protein stability index meeting or surpassing 0.7. Met: Criterion met. Not met: Criterion not met.

1. PHPCPTPPPLAP | Criterion not met
2. SLPPHPAPPPAA | Criterion met
3. RTGAPSGEACCA | Criterion not met
4. GVGLLAHLLIYR | Criterion not met
5. PASGHLPPPLSP | Criterion not met
6. PLLAPVPLTLTP | Criterion met
7. IRRHNVELSGYL | Criterion not met

----------
test system: Saccharomyces cerevisiae; test: protein stability index of tFT-peptide fusion (C-terminal peptide) (PSI (0-1 scale)); higher = more stable (slower turnover); conditions: genetic background: wild type; temperature: 30 C
MEASURED PARAMETER: protein stability index

1. VIGSSGRVGGLG | 0.691
2. HRFCAPSLSASD | 0.697
3. AYCGGRNKCTTE | 0.701
4. LCRRGGRSACGS | 0.702
5. ADKIPHSDNRSR | 0.697
6. RSRAYDSLPADQ | 0.682
7. LPSSCVLHMFFP | 0.711
8. PLTFRYQSHSAH | 0.702
9. LDHFGASYCPRG | 0.706
10. GNCVESCMWQRE | 0.704
11. GGGGGGRAGVWG | 0.687
12. ATGLPSPALLHT | 0.687
13. QKISEKNISEKN | 0.706

----------
test system: Saccharomyces cerevisiae; experiment: protein stability index of tFT-peptide fusion (C-terminal peptide) (PSI (0-1 scale)); higher = more stable (slower turnover); conditions: genetic background: wild type; temperature: 30 C
Documented protein stability index across a set of sequences
MEASURED PARAMETER: protein stability index

1. GASVWGRGTRKI | 0.69
2. FAKELSLRSFSA | 0.814
3. YYPLLLASQLPI | 0.735
4. LLFFSLFFSPLP | 0.642
5. PPSPPALPRFLL | 0.697
6. RALALVHRQRVG | 0.648
7. FSGGPSTPPTWS | 0.817
8. PPPPPPVRSLPL | 0.72
9. LQWSPQAELEGT | 0.712
10. RQSDPFCCSTHP | 0.745
11. GLVSSDVGFRGY | 0.73

----------
tested on: Saccharomyces cerevisiae; assay: protein stability index of tFT-peptide fusion (C-terminal peptide) (PSI (0-1 scale)); higher = more stable (slower turnover); conditions: genetic background: wild type; temperature: 30 C
Documented protein stability index across a set of sequences
MEASURED PARAMETER: protein stability index

1. RREASLGSYSFE | 0.698
2. PPPAPPCRLMSP | 0.719
3. DLDVVGEGSAGT | 0.683
4. GRPHRYWRVVPY | 0.68
5. RCAQKSMALLSD | 0.68
6. LVRFTCRFFVGV | 0.589
7. LVRFRADEPRGG | 0.688
8. RWFQSSDVVDRQ | 0.703
9. RGPAFAQPLPFL | 0.738
10. HRPPATPADPCS | 0.684
11. GRLRNVSLLSFC | 0.662
12. IRSVNFNIFVKR | 0.748
13. PHILMSFGSPLS | 0.729
14. PSAPRHLIPPPI | 0.715
15. LIQSDKTPRTTR | 0.696
16. MEGRVARAYSDE | 0.688
17. GGAGAGHDPRRN | 0.705
18. PSPDPCPLGRTA | 0.629
19. LCVRFFGVKWAF | 0.594
20. RISGSIVVRKRS | 0.554
21. FALTHSRSPSTS | 0.799
22. GWWGGGGGAWSG | 0.697
23. IKQEKPTKLPEP | 0.644
24. SMSEYGLLTMLE | 0.669
